Molecular target: Protein deacetylase HDAC6 (Homo sapiens) (UniProt Q9UBN7)
Sequence (whole entry): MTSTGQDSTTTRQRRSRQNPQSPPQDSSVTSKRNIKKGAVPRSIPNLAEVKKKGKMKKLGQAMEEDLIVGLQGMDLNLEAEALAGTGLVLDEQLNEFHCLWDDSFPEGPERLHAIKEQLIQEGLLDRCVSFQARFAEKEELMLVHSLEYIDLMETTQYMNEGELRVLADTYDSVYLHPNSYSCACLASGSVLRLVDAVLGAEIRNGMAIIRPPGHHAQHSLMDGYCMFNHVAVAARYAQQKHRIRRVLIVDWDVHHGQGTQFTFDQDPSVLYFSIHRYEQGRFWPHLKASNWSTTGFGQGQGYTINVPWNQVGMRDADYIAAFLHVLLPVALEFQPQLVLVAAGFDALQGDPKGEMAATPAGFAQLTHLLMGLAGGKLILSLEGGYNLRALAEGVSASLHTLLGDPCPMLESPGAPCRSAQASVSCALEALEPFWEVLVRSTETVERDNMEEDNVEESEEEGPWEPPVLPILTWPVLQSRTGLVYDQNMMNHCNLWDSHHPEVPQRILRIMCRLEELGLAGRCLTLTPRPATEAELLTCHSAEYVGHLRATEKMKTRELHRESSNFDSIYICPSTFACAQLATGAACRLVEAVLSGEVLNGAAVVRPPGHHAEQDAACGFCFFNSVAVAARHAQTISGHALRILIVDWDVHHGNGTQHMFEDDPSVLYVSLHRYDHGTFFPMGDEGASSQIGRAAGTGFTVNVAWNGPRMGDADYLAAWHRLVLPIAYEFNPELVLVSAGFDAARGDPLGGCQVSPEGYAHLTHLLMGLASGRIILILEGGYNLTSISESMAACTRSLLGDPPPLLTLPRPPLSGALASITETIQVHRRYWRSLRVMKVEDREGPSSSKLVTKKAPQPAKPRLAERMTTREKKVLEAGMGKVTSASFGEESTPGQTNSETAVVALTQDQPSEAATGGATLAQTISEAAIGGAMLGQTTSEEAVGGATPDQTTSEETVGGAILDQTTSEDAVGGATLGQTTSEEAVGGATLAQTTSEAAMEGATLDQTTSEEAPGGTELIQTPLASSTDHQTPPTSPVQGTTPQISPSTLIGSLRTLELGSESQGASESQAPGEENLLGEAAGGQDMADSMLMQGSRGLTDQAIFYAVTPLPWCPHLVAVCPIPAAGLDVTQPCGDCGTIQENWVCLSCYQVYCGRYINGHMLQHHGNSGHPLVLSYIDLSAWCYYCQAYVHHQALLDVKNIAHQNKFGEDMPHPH
Conditions: at 10 µM
About 390 (7%) of roughly 5,600 compounds showed an effect of 50% or more. Many of the other results were omitted from the sample, so strong results are more common in it than they were.
readout_label: inhibition (%)
# value in %; strip the unit string

Worked examples, 3 compounds total:
// query Give inhibition (Protein deacetylase HDAC6 (Homo sapiens) (UniProt Q9UBN7)) of the following compound: Cc1cc(-c2ccc3c(c2)CC[C@H]3N2CC3(CCN(C(=O)Cc4cn5cc(C)sc5n4)CC3)C2)ncn1
// result 0.83

// query Give inhibition (Protein deacetylase HDAC6 (Homo sapiens) (UniProt Q9UBN7)) of the following compound: COc1ccc(-c2nc(N3CCOCC3)c3sc(CN(C)c4ncc(C(=O)NO)cn4)cc3n2)cn1
// result 98

// query Give inhibition (Protein deacetylase HDAC6 (Homo sapiens) (UniProt Q9UBN7)) of the following compound: COC(=O)Nc1ccc(-c2nc(N3CCOCC3)c3cnn(C4CCN(C(=O)OC)CC4)c3n2)cc1
// result 21.1

From here, focus on the item given below.
// query Give inhibition (Protein deacetylase HDAC6 (Homo sapiens) (UniProt Q9UBN7)) of the following compound: CS(=O)(=O)N1CCN(Cc2cc3nc(-c4cccc5[nH]ncc45)nc(N4CCOCC4)c3s2)CC1
// result 11.1

Origin of the recorded values: ChEMBL document CHEMBL4808148
